assay: in vitro; conditions: PAMPA, PAMPA-BBB Pe(10^-6 cm/sec), Table S3: compounds exhibiting low PAMPA-BBB permeability
Reported Papp values for the following compounds.
Provide the reading as a plain figure in ×10⁻⁶ cm/s.

Answered examples (3):
{"compound": "CO[C@@H]1[C@@H](O[C@@H]2O[C@H](C)[C@@H](O[C@H]3C[C@@](C)(O)[C@@H](O)[C@H](C)O3)[C@H](N(C)C)[C@H]2O)[C@@H](CC=O)C[C@@H](C)[C@@H](O[C@H]2CC[C@H](N(C)C)[C@@H](C)O2)/C=C/C=C/C[C@@H](C)OC(=O)C[C@H]1OC(C)=O", "Papp (×10⁻⁶ cm/s)": 7.6}
{"compound": "COc1cc(C(O)C(=O)O)ccc1O (stereo not shown) [[…] ACID]", "Papp (×10⁻⁶ cm/s)": 5.6}
{"compound": "O=c1cc(-c2ccc(O)cc2)oc2cc(O)ccc12 [K[…]]", "Papp (×10⁻⁶ cm/s)": 2.9}

// moving on: another record for Papp
Please look up its Papp: COc1ccc2c(c1OC)CN1CCc3cc4c(cc3[C@@H]1C2)OCO4
5.5
